Test: PDMS sheets cleaned by Soxhlet with ethyl acetate; batch shaking method with a mixture of all chemicals at several PDMS-mass to water-volume ratios and spiked levels; vials shaken on an orbital shaker at room temperature in the dark, sampled at two equilibration times; PDMS extracts and water quantified by LC-HRMS (Orbitrap); D from the slope of C_PDMS on C_w or their ratio; value is the mean over that pH's experiments (individual experiments in the SI's concentrations table), sd is the table's stdev
Details: PDMS (polydimethylsiloxane silicone sheet); phosphate buffer at three target pH values (the paper's methods); pH 7.4
metric_name: log D PDMS/w (apparent distribution ratio at the stated pH)

- molecule: "CCc1cccc(C)c1N(C(=O)C(=O)O)C(C)C(=O)O (stereo not drawn)"
  result: "3.06 log units; D and K as the pape"
- molecule: "CCNS(=O)(=O)c1ccccc1C"
  result: "0.4188 log units; D and K as the pape"
- molecule: "CN(C)c1ccc(C(=O)c2ccc(N(C)C)cc2)cc1"
  result: "2.263 log units; D and K as the pape"
- molecule: "CCOC(=O)NCCOc1ccc(Oc2ccccc2)cc1"
  result: "2.994 log units; D and K as the pape"
- molecule: "O=P(c1ccccc1)(c1ccccc1)c1ccccc1"
  result: "2.511 log units; D and K as the pape"
- molecule: "COCCc1ccc(OCC(O)CNC(C)C)cc1 (stereo not drawn)"
  result: "-0.003333 log units; D and K as the pape"
- molecule: "CC(C)(c1cc(Br)c(O)c(Br)c1)c1cc(Br)c(O)c(Br)c1"
  result: "2.944 log units; D and K as the pape"
- molecule: "c1ccc2c(c1)[nH]c1cnccc12"
  result: "2.208 log units; D and K as the pape"
- molecule: "CCOC(=O)c1ccc(N)cc1"
  result: "0.4322 log units; D and K as the pape"
- molecule: "c1ccc(-c2ccc(C(c3ccccc3)n3ccnc3)cc2)cc1 (stereo not drawn)"
  result: "4.209 log units; D and K as the pape"
- molecule: "CCc1ccc(CCOc2ccc(CC3SC(=O)NC3=O)cc2)nc1 (stereo not drawn)"
  result: "2.087 log units; D and K as the pape"
- molecule: "N[C@@H](Cc1cc(I)c(Oc2cc(I)c(O)c(I)c2)c(I)c1)C(=O)O"
  result: "0.2933 log units; D and K as the pape"
- molecule: "c1ccc2[nH]nnc2c1"
  result: "0.06625 log units; D and K as the pape"
- molecule: "COC(=O)Nc1nc2ccc(C(=O)c3ccccc3)cc2[nH]1"
  result: "1.732 log units; D and K as the pape"
- molecule: "Cc1cc(=O)oc2cc(N)ccc12"
  result: "0.8008 log units; D and K as the pape"
- molecule: "O=C1NCCN1Cc1ccc(Cl)nc1"
  result: "1.277 log units; D and K as the pape"
- molecule: "CCCCCCCCCCCC(=O)N(CCO)CCO"
  result: "2.767 log units; D and K as the pape"
- molecule: "CC(C)(Oc1ccc(CCNC(=O)c2ccc(Cl)cc2)cc1)C(=O)O"
  result: "-0.64 log units; D and K as the pape"
- molecule: "CNC(=O)/C(=N/OC)c1ccccc1COc1cc(C)ccc1C"
  result: "2.361 log units; D and K as the pape"
- molecule: "CN(C)C(=O)Nc1ccccc1"
  result: "0.473 log units; D and K as the pape"
- molecule: "CO/C=C(/C(=O)O)c1ccccc1Oc1cc(Oc2ccccc2C#N)ncn1"
  result: "-0.4633 log units; D and K as the pape"
- molecule: "CC(C)Nc1nc(N)nc(Cl)n1"
  result: "0.4125 log units; D and K as the pape"
- molecule: "CCCCCCCCn1sccc1=O"
  result: "2.926 log units; D and K as the pape"
- molecule: "CCC(C(N)=O)(C(N)=O)c1ccccc1"
  result: "-0.585 log units; D and K as the pape"
- molecule: "CCCCOCCOCCOCc1cc2c(cc1CCC)OCO2"
  result: "3.685 log units; D and K as the pape"
- molecule: "CCNc1nc(N)nc(Cl)n1"
  result: "0.2883 log units; D and K as the pape"
- molecule: "CC(C)C(=O)Nc1ccc([N+](=O)[O-])c(C(F)(F)F)c1"
  result: "1.423 log units; D and K as the pape"
- molecule: "CC(C)(C)NC(=O)[C@H]1CC[C@H]2[C@@H]3CC[C@H]4NC(=O)C=C[C@]4(C)[C@H]3CC[C@]12C"
  result: "2.691 log units; D and K as the pape"
- molecule: "CCOC(=O)C(C)(C)Oc1ccc(Cl)cc1"
  result: "1.684 log units; D and K as the pape"
- molecule: "NC(=O)N1c2ccccc2C(O)C(O)c2ccccc21 (stereo not drawn)"
  result: "-0.44 log units; D and K as the pape"
- molecule: "CC=CC(=O)N(CC)c1ccccc1C (mixture of isomers)"
  result: "2.038 log units; D and K as the pape"
- molecule: "N#Cc1nn(-c2c(Cl)cc(C(F)(F)F)cc2Cl)c(N)c1C(F)(F)F"
  result: "1.927 log units; D and K as the pape"
- molecule: "CCOC(=O)c1ccc(N(C)C)cc1"
  result: "2.266 log units; D and K as the pape"
- molecule: "Cc1c(C(C)C)c(=O)n(-c2ccccc2)n1C"
  result: "1.554 log units; D and K as the pape"
- molecule: "O=S(=O)(c1ccc(Cl)cc1)c1ccc(Cl)cc1"
  result: "2.592 log units; D and K as the pape"
- molecule: "CN(C)C(=O)Nc1ccc(Cl)c(Cl)c1"
  result: "1.371 log units; D and K as the pape"
- molecule: "CCOC(=O)CC(O)(CC(=O)OCC)C(=O)OCC"
  result: "1.143 log units; D and K as the pape"
- molecule: "N#CSCSc1nc2ccccc2s1"
  result: "1.821 log units; D and K as the pape"
- molecule: "CC(C)(C)c1ccc(S(N)(=O)=O)cc1"
  result: "1.067 log units; D and K as the pape"
- molecule: "CC(CCc1ccccc1)NCC(O)c1ccc(O)c(C(N)=O)c1 (stereo not drawn)"
  result: "-0.2383 log units; D and K as the pape"
- molecule: "CN(C)S(=O)(=O)c1ccc(N)cc1"
  result: "-0.02167 log units; D and K as the pape"
- molecule: "Clc1ccccc1C(c1ccccc1)(c1ccccc1)n1ccnc1"
  result: "4.388 log units; D and K as the pape"
- molecule: "COC(=O)C(c1ccccc1Cl)N1CCc2sccc2C1 (stereo not drawn)"
  result: "-0.5267 log units; D and K as the pape"
- molecule: "CCN(CC)C(=O)c1cccc(C)c1"
  result: "1.592 log units; D and K as the pape"
- molecule: "Cc1ccc2[nH]nnc2c1"
  result: "0.308 log units; D and K as the pape"
- molecule: "N#Cc1nn(-c2c(Cl)cc(C(F)(F)F)cc2Cl)c(N)c1S(=O)(=O)C(F)(F)F"
  result: "2.376 log units; D and K as the pape"
- molecule: "CCNC(=O)[C@@H](C)OC(=O)Nc1ccccc1"
  result: "0.5527 log units; D and K as the pape"
- molecule: "CC(C)(C)Nc1nc(N)nc(Cl)n1"
  result: "1.264 log units; D and K as the pape"
- molecule: "O=C(/C=C/C=C/c1ccc2c(c1)OCO2)N1CCCCC1"
  result: "3.109 log units; D and K as the pape"
- molecule: "O=c1c2ccccc2[nH]c2ccccc12"
  result: "1.251 log units; D and K as the pape"
- molecule: "COCCOCCOCCOCCOC"
  result: "0.424 log units; D and K as the pape"
- molecule: "c1ccc2sc(NC3CCCCC3)nc2c1"
  result: "3.079 log units; D and K as the pape"
- molecule: "O=C1CC2(CCCCC2)CN1"
  result: "1.249 log units; D and K as the pape"
- molecule: "CCCCCCCCCCCC(=O)NCC(C)O (stereo not drawn)"
  result: "3.329 log units; D and K as the pape"
